- subjectOfTest: human recombinant 5-HT2A receptor (Homo sapiens)
- Construct: expressed in transfected cells; host or cells: Jump-In HEK cells (membrane preparation)
- Sequence (P28223 whole entry): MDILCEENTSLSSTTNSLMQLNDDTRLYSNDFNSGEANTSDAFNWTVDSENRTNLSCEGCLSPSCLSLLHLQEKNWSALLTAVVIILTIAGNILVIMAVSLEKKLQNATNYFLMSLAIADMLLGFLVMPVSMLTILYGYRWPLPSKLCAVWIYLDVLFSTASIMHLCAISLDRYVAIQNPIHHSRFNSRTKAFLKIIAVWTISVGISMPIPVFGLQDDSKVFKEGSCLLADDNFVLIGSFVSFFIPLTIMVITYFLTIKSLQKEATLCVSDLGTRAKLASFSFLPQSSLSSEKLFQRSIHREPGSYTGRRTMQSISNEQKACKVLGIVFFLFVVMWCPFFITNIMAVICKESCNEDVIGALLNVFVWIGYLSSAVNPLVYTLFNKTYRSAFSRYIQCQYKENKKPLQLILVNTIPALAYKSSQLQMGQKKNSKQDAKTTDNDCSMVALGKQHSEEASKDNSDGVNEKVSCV
- testName: Test Example 1-2: 5-HT2A receptor binding inhibition test ([3H]-Ketanserin; non-specific ligand Ketanserin)
- conditionContext: [3H]-Ketanserin; non-specific binding with 500 µmol/L Ketanserin; room temperature (25°C), 1.5 hours; read-out: h 5-HT2A Ki
outcomeMeasure: log10 of Ki (log10 of the value in nM)
Please note: log10 values; quantity Ki; unit nM.

Recorded log10 of Ki for "Cc1cc(OC(F)F)cnc1Nc1cc(-c2c(C)cnn2C)c(OCCO)cn1" , please?
-0.34

// query: "Cc1ncnc(C)c1-c1cc(Nc2ncc(C(F)(F)F)cc2F)cnc1OCCO"
-0.21

Also "Cn1ncc(Br)c1-c1cc(Nc2nc3cc(Cl)ccc3s2)ccc1OCCO" , if possible.
-0.43

Now the molecule "Cn1ncc(Br)c1-c1cc(Nc2nc3ccc(F)cc3s2)c(Cl)cc1OCCO"
-0.42

# iterate: "Cn1ncc(Br)c1-c1cc(Nc2ncc(C3CC3)cn2)ccc1OCCO"
-0.04

And what about the molecule "Cn1ncc(Br)c1-c1cc(Nc2nc(C(F)(F)F)cs2)ccc1OCCO" ?
-0.46

How about "Cc1cnn(C)c1-c1cc(Nc2ncc(OC(F)(F)F)cc2F)ncc1OCCO" ?
-0.41

Can you check "COCC(F)(F)COc1nc(C)c(-c2cc(Nc3ncc(C(F)(F)F)cc3Cl)ncc2OCCO)c(C)n1" next?
0.09

And "Cn1ncc(Cl)c1-c1cc(Nc2ncc(OC(F)(F)F)cc2F)ncc1OCCO" ?
-0.73

Follow-up entry: "O=C1NCc2c1cccc2-c1cc(Nc2ncc(C(F)(F)F)cc2F)ncc1OCCO"
-0.22

Please answer likewise for "Cc1cnn(C)c1-c1cc(Nc2ncc(C(F)(F)F)cc2F)c(Oc2ccn(C)n2)cc1OCCO"
0.40

# repeat for "COCc1nc(C)c(-c2cc(Nc3ncc(-c4cccc(F)c4F)cc3Cl)ncc2OCCO)c(C)n1"
-0.17

Param item: "Cn1ncc(Br)c1-c1nc(Nc2ccc(C(F)(F)F)cc2F)ncc1OCCO"
-0.65

Follow-up item: "Cn1ncc(Br)c1-c1cc(Nc2ncc(C(F)(F)F)cn2)cnc1OCCO"
-0.79

Entry "Cn1ncc(Br)c1-c1cc(Nc2nc3ccccc3o2)ccc1OCCO" please
-0.81

Do the same for "Cn1ncc(Cl)c1-c1cc(Nc2ccc(OC(C)(F)F)cn2)ncc1OCCO" please
-0.55

What do you get for "Cn1ncc(F)c1-c1cc(Nc2ncc(Cl)cc2F)ccc1OCCO" ?
-0.69

Next entry: "COCc1nc(C)c(-c2cc(Nc3ncc(-c4ncc(C(F)(F)F)s4)cc3Cl)ncc2OCCO)c(C)n1"
-0.05
